Target: plasma kallikrein (Homo sapiens, UniProt P03952)
Construct: from tissue
Sequence (P03952 391-638 limits assumed): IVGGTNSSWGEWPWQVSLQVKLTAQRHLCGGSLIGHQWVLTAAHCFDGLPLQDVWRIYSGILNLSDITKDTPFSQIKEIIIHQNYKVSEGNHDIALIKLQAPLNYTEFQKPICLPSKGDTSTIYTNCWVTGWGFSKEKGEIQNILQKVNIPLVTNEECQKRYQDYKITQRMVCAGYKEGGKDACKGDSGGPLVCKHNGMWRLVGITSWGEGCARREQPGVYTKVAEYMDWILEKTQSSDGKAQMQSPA
Sequence (P03952 20-390 partner limits assumed): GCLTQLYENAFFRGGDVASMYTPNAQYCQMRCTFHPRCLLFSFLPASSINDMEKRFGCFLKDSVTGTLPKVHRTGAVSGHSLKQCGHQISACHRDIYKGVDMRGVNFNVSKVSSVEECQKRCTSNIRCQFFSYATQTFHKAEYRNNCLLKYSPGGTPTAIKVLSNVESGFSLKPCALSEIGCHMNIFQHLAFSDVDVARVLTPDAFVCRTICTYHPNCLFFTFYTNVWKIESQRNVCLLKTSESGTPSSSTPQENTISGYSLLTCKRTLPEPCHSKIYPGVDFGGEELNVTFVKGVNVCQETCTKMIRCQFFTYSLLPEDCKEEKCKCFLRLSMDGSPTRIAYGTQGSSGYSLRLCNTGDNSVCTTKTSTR
Test: Neat human plasma assay, FXIIa contact pathway-activated, PFR-AMC substrate
Assay type: biochemical
Conditions: citrated human plasma 78% final, 10 nM human FXIIa, 100 μM PFR-AMC; read-out: Human Plasma Assay: IC90
Method: To analyze inhibition of plasma kallikrein in an ex vivo setting, the potency of compounds was measure in contact pathway-activated plasma assays. In a fluorogenic peptide substrate assay, test compounds dissolved in DMSO were added to sodium citrate collected human or rat plasma in a 96-well microplate. […] Fluorescence was immediately monitored by excitation/emission wavelengths of 360 nm/480 nm respectively over a period of 5 minutes in a microplate reader. […]
Reported IC90 values follow for various compounds

Look over these answered cases.
compound=CN1CCC(F)(c2cc(C3CC3)cn3cc(CNc4cc(NC(=O)[C@H]5C[C@@H]5c5cccc(Cl)c5)ncn4)nc23)CC1 observable=IC90 val="400 to 1500 nM"
compound=O=C(Nc1cc(NCc2cn3cc(C4CC4)cc(N4CC(=O)N(CCO)C4=O)c3n2)ncn1)[C@H]1C[C@@H]1c1cccc(Cl)c1 observable=IC90 val="400 to 1500 nM"

Just so you know, measured IC90 for Cc1ccnc([C@H]2C[C@@H]2C(=O)Nc2nc(C)nc(OCc3cn4cc(C5CC5)cc(N5CC(=O)N(C)C5=O)c4n3)n2)n1 came out at 400 to 1500 nM

Just so you know, measured IC90 for Cc1ccnc([C@H]2C[C@@H]2C(=O)Nc2cc(NCc3cn4cc(C5CC5)cc(S(C)(=O)=O)c4n3)ncn2)n1 (racemic) [Example 322] came out at 400 to 1500 nM

Just so you know, measured IC90 for CN1CCN(c2cc(C3CC3)cn3cc(CNc4cc(NC(=O)[C@H]5C[C@@H]5c5cc(Cl)ccn5)ncn4)nc23)C(=O)C1 (racemic) came out at 400 to 1500 nM

Just so you know, measured IC90 for O=C1CN(c2cc(C3CC3)cn3cc([C@H]4C[C@H](O)CN4c4cc(NC(=O)[C@H]5C[C@@H]5c5cc(Cl)ccn5)ncn4)nc23)C(=O)N1 came out at < 400 nM

====

Molecular target: human activated kallikrein enzyme (Homo sapiens, UniProt P03952)
Sequence (P03952 391-638 limits assumed): as the sequence (P03952 391-638 limits assumed) above
Sequence (P03952 20-390 partner limits assumed): as the sequence (P03952 20-390 partner limits assumed) above
Test: Plasma kallikrein inhibition, fluorogenic PFR-AMC substrate, 500 pM activated kallikrein format
Format: biochemical
Conditions: 500 pM activated kallikrein, 300 uM PFR-AMC, 30 min preincubation, 10 min reaction; read-out: Primary Dose Response Assay: Average EC50
Description: Compounds were evaluated for inhibition of the human activated kallikrein enzyme in two formats of an assay employing a fluorogenic peptide substrate. […] After initiation with substrate, reactions were incubated for 10 min at room temperature and fluorescence emission at 460 nm from 380 nm excitation measured with a microplate reader. […]
Observable: EC50

molecule="O=C(Nc1cc(NCc2cn3cc(C4CC4)ccc3n2)ncn1)[C@H]1C[C@@H]1c1ccc(F)c(Cl)c1 (racemic)" observable=EC50 val="100 to 1000 nM"
molecule=Cc1ccnc([C@H]2C[C@@H]2C(=O)Nc2cc(NCc3cn4cc(C5CC5)ccc4n3)ncn2)n1 observable=EC50 val="< 1 nM"
molecule="Cc1ccnc([C@H]2C[C@@H]2C(=O)Nc2cc(NCc3cn4cc(C5CC5(F)F)cc(N5CC(=O)N(C)C5=O)c4n3)ncn2)n1 (stereo partly drawn)" observable=EC50 val="< 1 nM"
molecule=O=C(Nc1cc2c(cn1)OCCN2Cc1cn2cc(C3CC3)ccc2n1)[C@H]1C[C@@H]1c1cccc(Cl)c1 observable=EC50 val="1 to 10 nM"
molecule=O=C(Nc1cc(N2C[C@@H](CO)C[C@@H]2c2cn3cc(C4CC4)ccc3n2)ncn1)[C@H]1C[C@@H]1c1cc(Cl)ccn1 observable=EC50 val="1000 to 6000 nM"

Please turn your attention to the following entry.
Just so you know, measured EC50 for Cc1ccnc([C@H]2C[C@@H]2C(=O)Nc2cncc(NCc3cn4cc(C5CC5)cc(N5CC(=O)N(C)C5=O)c4n3)n2)n1 (racemic) came out at < 1 nM

====

Reported EC50 values follow for various molecules
target: human activated kallikrein enzyme (Homo sapiens); assay: Plasma kallikrein inhibition, fluorogenic PFR-AMC substrate, 500 pM activated kallikrein format; format: biochemical; details: 500 pM activated kallikrein, 300 uM PFR-AMC, 30 min preincubation, 10 min reaction; read-out: Primary Dose Response Assay: Average EC50

Look over these answered cases.
molecule="Cc1ccnc([C@H]2C[C@@H]2C(=O)Nc2cc(OCc3cn4cc(C5CC5)cc(N5CC(=O)NC5=O)c4n3)ncn2)n1 [Example 32]" observable=EC50 val="< 1 nM"
molecule="Cc1ccnc([C@H]2C[C@@H]2C(=O)Nc2cc(N(C)Cc3cn4cc(C5CC5)cc(N5CC(=O)N(CCOCc6ccccc6)C5=O)c4n3)cc(C3CC3)n2)n1 [Example I-636]" observable=EC50 val="1 to 10 nM"

Just so you know, measured EC50 for CS(=O)(=O)c1cc(C2CC2)cn2cc(CNc3cc(NC(=O)[C@H]4C[C@@H]4c4cccc(Cl)c4)ncn3)nc12 (racemic) [Example 60] came out at 1 to 10 nM

====

molecular target: human activated kallikrein enzyme (Homo sapiens, UniProt P03952); assay: Plasma kallikrein inhibition, fluorogenic PFR-AMC substrate, 500 pM activated kallikrein format; format: biochemical; details: 500 pM activated kallikrein, 300 uM PFR-AMC, 30 min preincubation, 10 min reaction; read-out: Primary Dose Response Assay: Average EC50
pEC50: −log10 of the molar value.
Observable: pEC50

Look over these answered cases.
molecule=Cc1cc(NC(=O)[C@H]2C[C@@H]2c2nccc(C)n2)nc(N[C@H](C)c2cn3cc(C4CC4)cc(N4CC(=O)N(C)C4=O)c3n2)n1 observable=pEC50 val="> 9.00"
molecule="Cc1ccnc([C@H]2C[C@@H]2C(=O)Nc2cc(N[C@H](C)c3cn4cc(C5CC5)cc(N5CC6CC6C5=O)c4n3)nc(C)n2)n1 (stereo partly drawn)" observable=pEC50 val="> 9.00"

Please turn your attention to the following entry.
Just so you know, measured pEC50 for O=C(Nc1cc(NCc2cn3cc(C4CC4)cc(N4CCN(CC(F)(F)F)CC4)c3n2)ccn1)[C@H]1C[C@@H]1c1cccc(Cl)c1 (racemic) came out at 8.00 to 9.00

====

biological target: human activated kallikrein enzyme (Homo sapiens, UniProt P03952); assay: Plasma kallikrein inhibition, fluorogenic PFR-AMC substrate, 500 pM activated kallikrein format; type: biochemical; details: 500 pM activated kallikrein, 300 uM PFR-AMC, 30 min preincubation, 10 min reaction; read-out: Primary Dose Response Assay: Average EC50
Observable: EC50

Look over these answered cases.
compound="O=C(Nc1cc(NCc2cn3cc(C4CC4)ccc3n2)ncn1)[C@H]1C[C@@H]1c1cc(Cl)ccc1Cl (racemic)" observable=EC50 val="100 to 1000 nM"
compound=O=C(Nc1nccc2c1cnn2Cc1cn2cc(C3CC3)ccc2n1)[C@H]1C[C@@H]1c1cccc(Cl)c1 observable=EC50 val="1000 to 6000 nM"
compound="CC1CCN(c2cc(C3CC3)cn3cc(CNc4cc(NC(=O)[C@H]5C[C@@H]5c5cccc(Cl)c5)ncn4)nc23)C1=O (relative stereo)" observable=EC50 val="1 to 10 nM"
compound="CN1C(=O)CN(c2cc(C3CC3)cn3cc(CNc4cc(NC(=O)C5CC5(F)c5cccc(Cl)c5)ncn4)nc23)C1=O (racemic)" observable=EC50 val="1 to 10 nM"
compound="O=C(Nc1cc(NCc2cn3cc(C4CC4)ccc3n2)ccn1)[C@H]1C[C@@H]1c1n[nH]c2ccc(Cl)cc12 (racemic)" observable=EC50 val="> 6000 nM"
compound="Nc1cc(Cl)cc([C@H]2C[C@@H]2C(=O)Nc2cc(NCc3cn4cc(C5CC5)ccc4n3)ncn2)c1 (single isomer, unassigned) [Example I-257]" observable=EC50 val="1 to 10 nM"
compound="O=C(Nc1nccc2nn(Cc3cn4cc(C5CC5)ccc4n3)cc12)[C@H]1C[C@@H]1c1cc(Cl)ccc1-n1cnnn1 (racemic)" observable=EC50 val="< 1 nM"
compound=O=C(Nc1cc(NCc2cn3cc(C4CC4)cc(N4CCNC4=O)c3n2)ncn1)[C@H]1C[C@@H]1c1cc(Cl)ccn1 observable=EC50 val="< 1 nM"
compound="Cc1nc([C@H]2C[C@@H]2C(=O)Nc2cc(N[C@H](C)c3cn4cc(C5CC5)cc(N5CC(=O)N(C)C5=O)c4n3)ncn2)ncc1F (relative stereo)" observable=EC50 val="< 1 nM"
compound="Cc1ccnc([C@H]2C[C@@H]2C(=O)Nc2cc(N(C)Cc3cn4cc(C5CC5)cc(N5CC(=O)N(C)C5=O)c4n3)ncn2)n1 (racemic)" observable=EC50 val="< 1 nM"

Just so you know, measured EC50 for Cc1ccnc([C@H]2C[C@@H]2C(=O)Nc2cc(NCc3cn4cc(C5CC5)cc(S(C)(=O)=O)c4n3)ncn2)n1 (single isomer, unassigned) [Example 324] came out at < 1 nM

Just so you know, measured EC50 for O=C(Nc1cc(NCc2cn3cc(C4CC4)cc(Cl)c3n2)ncn1)[C@H]1C[C@@H]1c1cccc(Cl)c1 (racemic) came out at 1 to 10 nM

Just so you know, measured EC50 for O=C(Nc1cc(NCc2cn3cc(C4CC4)ccc3n2)ccn1)[C@H]1C[C@@H]1c1cc(Cl)ccn1 (racemic) [Example I-268] came out at < 1 nM
